Attribution: patent US8541407B2

Measured IC50, listed per entry.
- assayed.system: AKT1 (Homo sapiens (Human))
- Sequence (P31749 whole entry): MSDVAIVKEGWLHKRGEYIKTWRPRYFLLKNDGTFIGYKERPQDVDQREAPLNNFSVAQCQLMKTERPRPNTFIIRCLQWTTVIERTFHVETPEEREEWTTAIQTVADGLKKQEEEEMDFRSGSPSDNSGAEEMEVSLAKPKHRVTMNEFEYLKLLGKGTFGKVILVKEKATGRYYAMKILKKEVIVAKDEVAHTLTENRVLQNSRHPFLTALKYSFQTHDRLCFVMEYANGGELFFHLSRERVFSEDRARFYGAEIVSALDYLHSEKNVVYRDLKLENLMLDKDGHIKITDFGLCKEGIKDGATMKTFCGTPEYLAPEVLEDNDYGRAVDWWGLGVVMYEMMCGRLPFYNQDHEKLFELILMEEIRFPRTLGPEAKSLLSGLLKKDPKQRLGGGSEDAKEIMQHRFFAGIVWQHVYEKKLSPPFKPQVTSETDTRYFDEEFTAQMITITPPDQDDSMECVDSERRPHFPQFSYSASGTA
- measurement.protocol: Inactive Akt Alpha Screen Assay
- details: non *labeled: Akt Alpha Screen assay; read-out: AKT1 biochemical assay, IC50

item.smiles | IC50 [µM]
Cn1cnc(S(=O)(=O)NCc2ccc(-c3nnc4n3-c3cccnc3Nc3ccccc3-4)cc2)c1 | 0.24
O=S(=O)(Cc1ccccc1)NC1CCN(Cc2ccc(-c3nnc4n3-c3cccnc3Nc3ccccc3-4)cc2)CC1 | 1.8
O=C1CCCN1CCCNCc1ccc(-c2nnc3n2-c2cccnc2Nc2ccccc2-3)cc1 | 4.4
Cc1cccc(C(=O)N2CCN(Cc3ccc(-c4nnc5n4-c4cccnc4Nc4ccccc4-5)cc3)CC2)c1 | 1.3
